molecular target: human A2B receptor (Homo sapiens, UniProt P29275); construct: expressed in transfected cells; host or cells: HEK293; experiment: Functional A2B receptor activity, recombinant HEK293 cells, cAMP (HTRF), agonist NECA; assay type: cell-based; conditions: read-out: Functional A2B receptor activity, HEK293, cAMP, IC50
Sequence (P29275 whole entry): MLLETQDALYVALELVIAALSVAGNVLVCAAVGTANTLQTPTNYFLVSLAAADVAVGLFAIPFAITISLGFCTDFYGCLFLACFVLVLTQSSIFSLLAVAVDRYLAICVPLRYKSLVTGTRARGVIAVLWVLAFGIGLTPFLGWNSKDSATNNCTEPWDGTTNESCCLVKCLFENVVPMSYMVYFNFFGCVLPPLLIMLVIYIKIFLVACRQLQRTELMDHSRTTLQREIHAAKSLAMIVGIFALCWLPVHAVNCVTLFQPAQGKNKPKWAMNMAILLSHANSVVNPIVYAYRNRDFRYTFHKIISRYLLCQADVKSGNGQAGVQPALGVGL
So I've got a bunch of molecules here, and I need their IC50 values.

# lookup: COc1ncc(C2=CCOCC2)c2sc(NC(=O)Nc3ccc(N4CCOC4=O)cc3)nc12 on human A2B receptor (Homo sapiens, UniProt P29275), IC50 = < 10 nM

# lookup: COc1ncc(-c2cccs2)c2sc(NC(=O)N3CCC4(CCOCC4)C3)nc12 on human A2B receptor (Homo sapiens, UniProt P29275), IC50 = < 10 nM

# lookup: COc1cnc(N2CCOCC2)c2sc(NC(=O)N3CCCCC3)nc12 [drawing 192, reference compound] on human A2B receptor (Homo sapiens, UniProt P29275), IC50 = < 1000 nM

# lookup: COc1nc(F)c(-c2ccc(F)cc2)c2sc(NC(=O)N3CCC(C)(O)CC3)nc12 on human A2B receptor (Homo sapiens, UniProt P29275), IC50 = < 10 nM

# lookup: COc1ncc(C2COCCO2)c2sc(NC(=O)N3CCC4(CCOCC4)C3)nc12 (centres unmarked) on human A2B receptor (Homo sapiens, UniProt P29275), IC50 = < 100 nM

# lookup: COc1ncc(C2=CCSCC2)c2sc(NC(=O)N3CCC4(CCOCC4)C3)nc12 on human A2B receptor (Homo sapiens, UniProt P29275), IC50 = < 10 nM

# lookup: COc1ccc(-c2cnn(C)c2)c2sc(NC(=O)N3CCC(C)(O)CC3)nc12 [reference compound] on human A2B receptor (Homo sapiens, UniProt P29275), IC50 = < 1000 nM

# lookup: COc1ncc(-c2cnn(Cc3ccncc3)c2)c2sc(NC(=O)N3CCC4(CCOCC4)C3)nc12 on human A2B receptor (Homo sapiens, UniProt P29275), IC50 = < 100 nM

###

So I've got a bunch of compounds here, and I need their IC50 values.
Target: human A2A receptor (Homo sapiens)
Sequence (P29274 whole entry): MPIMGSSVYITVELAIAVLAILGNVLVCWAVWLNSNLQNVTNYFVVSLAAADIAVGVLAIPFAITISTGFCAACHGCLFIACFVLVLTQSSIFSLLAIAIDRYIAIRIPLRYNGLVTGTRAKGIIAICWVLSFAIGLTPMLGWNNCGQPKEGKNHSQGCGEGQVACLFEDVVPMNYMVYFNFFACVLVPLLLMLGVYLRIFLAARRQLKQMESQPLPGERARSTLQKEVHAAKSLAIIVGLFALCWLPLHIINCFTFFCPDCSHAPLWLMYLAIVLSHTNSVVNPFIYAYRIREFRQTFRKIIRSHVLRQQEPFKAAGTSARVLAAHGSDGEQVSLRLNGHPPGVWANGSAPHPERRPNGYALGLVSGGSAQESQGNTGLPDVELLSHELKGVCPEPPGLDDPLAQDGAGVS
Assay: Human T cells, endogenous A2A receptor, cAMP, agonist NECA
Assay type: cell-based
Conditions: read-out: hTcell data, cAMP, IC50
Procedure: The endogenous functional activity of the Gs-coupled human A2A receptor was measured in T cells, where this receptor is highly expressed. Determination of receptor activity was done by quantification of cAMP, which is a second messenger for adenosine receptors. In short, human pan T cells were isolated from human PBMC (MACS Pan T Cell Isolation Kit, Miltenyi Biotec) that have been derived from fresh whole blood. The T cells were seeded in 384-well microtiter plates and treated with test compounds. […]

So, COc1nc(F)c(-c2ccccc2)c2sc(NC(=O)N3CC[C@]4(CCCOC4)C3)nc12 ? Its IC50 was < 10 nM

So, COc1ncc(C2=CCOCC2)c2sc(NC(=O)N3CC[C@]4(CCCOC4)C3)nc12 ? Its IC50 was < 10 nM

So, COc1nc(F)c(N2CCOCC2)c2sc(NC(=O)c3ccc(-c4nnn[nH]4)cc3)nc12 ? Its IC50 was < 100 nM

So, COc1ncc(-c2ccccc2)c2sc(NC(=O)N3CCC(N4C(=O)CNC4=O)CC3)nc12 ? Its IC50 was < 10 nM

So, COc1cnc(N2CCOCC2)c2sc(NC(=O)N3CCC(CO)CC3)nc12 [drawing 217] ? Its IC50 was < 1000 nM

So, COc1ncc(-c2cnn(Cc3ccccn3)c2)c2sc(NC(=O)N3CCC4(CCOCC4)C3)nc12 ? Its IC50 was < 10 nM

So, COc1nc(F)c(N2CCOCC2)c2sc(NC(=O)N3CCC4(CCCOC4)C3)nc12 (stereo not drawn) ? Its IC50 was < 10 nM

So, [2H]C([2H])([2H])Oc1ncc(C2=CCOCC2)c2sc(NC(=O)N3CC[C@]4(CCCOC4)C3)nc12 ? Its IC50 was < 10 nM

So, COc1ncc(C2=CCOCC2)c2sc(NC(=O)c3c[nH]c(-c4ccncc4)n3)nc12 ? Its IC50 was < 10 nM

So, COc1ccc(N2CCOCC2)c2sc(NC(=O)N3CCCCC3)nc12 [drawing 221] ? Its IC50 was < 1000 nM

So, COc1cnc(N2CCOCC2)c2sc(NC(=O)N3CCC(O)CC3)nc12 ? Its IC50 was < 1000 nM

So, COc1cnc(N2CCOCC2)c2sc(NC(=O)N3CCOCC3)nc12 [drawing 223] ? Its IC50 was < 1000 nM

So, COc1ncc(C2=CCOCC2)c2sc(NC(=O)N3CCC4(CCNCC4)C3)nc12 ? Its IC50 was < 10 nM

So, COc1ccc(-c2ccccc2)c2sc(NC(=O)NCCN3CCCCC3)nc12 [drawing 216] ? Its IC50 was < 1000 nM

So, COc1cnc(N2CCOCC2)c2sc(NC(=O)N3CCCCC3)nc12 [drawing 222] ? Its IC50 was < 1000 nM

So, COc1nc(F)c(N2CCOCC2)c2sc(NC(=O)N3CC[C@]4(CCOC4)C3)nc12 ? Its IC50 was < 10 nM

So, COc1ncc(C2COCCO2)c2sc(NC(=O)c3ccc(C(=O)O)cc3)nc12 (stereo not drawn) ? Its IC50 was < 100 nM

So, COc1ncc(-c2cnn(Cc3cccnc3)c2)c2sc(NC(=O)N3CCC4(CCOCC4)C3)nc12 ? Its IC50 was < 10 nM

So, COc1ncc(C2=CCOCC2)c2sc(NC(=O)N3CCC(N4C(=O)CSC4=O)CC3)nc12 ? Its IC50 was < 10 nM

So, COc1ncc(C2=CCC(F)(F)CC2)c2sc(NC(=O)N3CCC4(CCOCC4)C3)nc12 ? Its IC50 was < 10 nM

So, COc1nc(F)c(C2CCOCC2)c2sc(NC(=O)N3CC[C@]4(CCOC4)C3)nc12 ? Its IC50 was < 10 nM

So, COc1ncc(-c2ccccc2)c2sc(NC(=O)N3CC[C@@H](CN)C3)nc12 ? Its IC50 was < 10 nM

So, COc1nc(F)c(C2CCOCC2)c2sc(NC(=O)N3CCC4(CCOCC4)C3)nc12 ? Its IC50 was < 10 nM

So, COc1ncc(C2=CCCCC2)c2sc(NC(=O)N3CCC4(CCOCC4)C3)nc12 ? Its IC50 was < 10 nM

So, CNc1cccc(-c2cnc(OC)c3nc(NC(=O)N4CCC5(CCOCC5)C4)sc23)c1 ? Its IC50 was < 10 nM

So, COc1nc(F)c(-c2ccccc2)c2sc(NC(=O)N3CC[C@@]4(CCCOC4)C3)nc12 ? Its IC50 was < 10 nM

So, COc1ncc(C2=CCOCC2)c2sc(NC(=O)N3CCC(N4C(=O)CNC4=O)CC3)nc12 ? Its IC50 was < 10 nM

So, COc1ncc(C2=CCOCC2)c2sc(NC(=O)N3CC[C@@]4(CCCOC4)C3)nc12 ? Its IC50 was < 10 nM

So, COC(=O)N(C)Cc1ccc(C(=O)Nc2nc3c(OC)ncc(-c4ccccc4)c3s2)cc1 ? Its IC50 was < 100 nM

So, COc1ncc(-c2ccccc2)c2sc(NC(=O)N3CCC(N4C(=O)CCC4=O)CC3)nc12 ? Its IC50 was < 100 nM

So, COc1ncc(C2=CCOCC2)c2sc(NC(=O)c3ccc(C(=O)O)cc3)nc12 ? Its IC50 was < 100 nM

So, COc1ccc(N2CCOCC2)c2sc(NC(=O)N3CCC4(CCCO4)CC3)nc12 [drawing 219] ? Its IC50 was < 1000 nM

So, COc1ncc([C@H]2COCCO2)c2sc(NC(=O)N3CCC4(CCOCC4)C3)nc12 ? Its IC50 was < 10 nM
